Quick list: growth per entry.
Test system: SF-268 CNS
measurement-description: NCI-60 one-dose screen, 48 h (100 = growth as untreated, 0 = no growth, -100 = all killed)
condition-description: 10 µM
About 83,000 compounds went through this panel and 20% of them were active in at least one assay; those are over-represented in the sample as a whole.
property-name: growth (%)

compound="CC1(c2ccccc2)NC(=O)N(CC(=O)Nc2ccc(C(=O)/C=C/c3ccccc3)cc2)C1=O (stereo not given)" endpoint_value=52.2
compound=O=C(Nc1ccc(Cl)c([N+](=O)[O-])c1)Nc1ccc(Cl)c([N+](=O)[O-])c1 endpoint_value=18
compound=CN1CCN(Cc2ccc(C(=O)Nc3cccc(Nc4ccc5cc(O)ccc5n4)c3)cc2C(F)(F)F)CC1 endpoint_value=-26
compound=Cc1cc(=O)oc2cc(OCCCCOc3ccc(/C=C/C(=O)Nc4ccc(F)c(Cl)c4)cc3)ccc12 endpoint_value=111
compound=COc1ccc(OC)c(-c2cc(-c3c[nH]c4ccccc34)nc(N)c2C#N)c1 endpoint_value=9.75

###

Test system: SF-295 CNS
measurement-description: NCI-60 one-dose screen, 48 h
condition-description: 10 µM
This is part of a sample that, as a whole, favours compounds with a hit. Of some 83,000 tested, about 20% had one in any assay. Calls of active or inactive are those of the source. The calls were made as follows: active = growth percent below 10; inactive = the rest.
Possible outcomes: y = active, n = inactive

query_smiles=NC(=Nc1ccc(OCCCCCCCCn2ccnn2)cc1)c1ccccc1 category=n
query_smiles=COc1ccc(-c2ccc(SCC(=O)Nc3ccc(C#N)cc3)nn2)cc1 category=n
query_smiles=COc1csc(/C=N/NC(=O)c2[nH]c3ccc(Br)cc3c2-c2ccccc2)c1 category=y

###

Tested on: OVCAR-4 ovarian
measurement-description: NCI-60 one-dose screen, 48 h (100 = growth as untreated, 0 = no growth, -100 = all killed)
condition-description: 10 µM
Experimental: Growth inhibition of the OVCAR-4 human tumor cell line is measured as a screen for anti-cancer activity. Cells are grown in 96 well plates and exposed to the test compound for 48 hours. Compounds are tested at a single concentration, which is 10^-5 M for most compounds. The reported endpoint is percent growth (GI% or GIPRCNT), where numbers from 0 - 100% represent growth inhibition, and numbers from -100% - 0 represent cell death. For example, a value of 40 represents 60% growth inhibition. […]
This is part of a sample that, as a whole, favours compounds with a hit. Of some 83,000 tested, about 20% had one in any assay.
Quick list: growth per entry.
property-name: growth (%)

compound=O=C(CNc1nc(-c2ccccc2)cs1)Nc1ccc(Cl)cc1[N+](=O)[O-] property_name=growth endpoint_value=15.5
compound=O=C1Nc2cc(Cl)ccc2/C1=C/c1cccc(OCc2ccc(Br)cc2F)c1 property_name=growth endpoint_value=39.1
compound="COc1ccc(N2N=C(c3ccc4c(c3)OCCO4)CC2c2cccc(NC(=O)CCCNS(=O)(=O)c3ccc(F)cc3)c2)cc1 (stereo not given)" property_name=growth endpoint_value=60
compound=O=C1Nc2cc(Cl)ccc2/C1=C/c1cccc(OCc2ccccc2)c1 property_name=growth endpoint_value=36.7
compound=Cc1ccc(-c2nc3ccc(C(=O)N=Nc4c(O)[nH]c5ccc([N+](=O)[O-])cc45)cc3[nH]2)cc1 property_name=growth endpoint_value=55.2
compound=O=C(Nc1nc2ccccc2s1)c1ccc(Br)cc1 property_name=growth endpoint_value=80.6
compound=O=C(CSc1nnc(-c2ccc3nc(-c4ccccc4)[nH]c3c2)o1)Nc1ccc(Br)cc1 property_name=growth endpoint_value=81.3
compound=CC(C)Sc1nc(NC2CC2)c(C#N)c(-c2ccccc2)n1 property_name=growth endpoint_value=27.6
compound=O=C1c2ccccc2C(=O)c2c1c(C(=O)c1ccc(Cl)cc1)n1c2ccc2c3ccccc3ccc21 property_name=growth endpoint_value=107
compound=Cc1ccc(-c2cc(-c3cc4ccccc4nc3Cl)[nH]c(=S)n2)cc1 property_name=growth endpoint_value=80.6

###

Tested on: SK-MEL-5 melanoma
measurement-description: NCI-60 one-dose screen, 48 h
condition-description: 10 µM
This is part of a sample that, as a whole, favours compounds with a hit. Of some 83,000 tested, about 20% had one in any assay. Calls of active or inactive are those of the source. Rule for the calls: active = growth percent below 10; inactive = the rest.
Possible outcomes: active, inactive

query_smiles=N#Cc1ccc(NC(=O)CSc2ccc(-c3ccc(Br)cc3)nn2)cc1 category=active
query_smiles=Cc1ccn2c(C(=O)c3ccc(Br)cc3)cc(-c3cc(-c4ccc(N(C)C)cc4)c(C#N)c(N)n3)c2c1 category=inactive
query_smiles=CN1CCN(c2ccc(Nc3nc(N4CCN(S(=O)(=O)c5ccc(F)cc5)CC4)c4sccc4n3)cc2)CC1 category=active

###

Test system: NCI-H460 lung
measurement-description: NCI-60 one-dose screen, 48 h
condition-description: 10 µM
Compounds without any hit were thinned out: in the full panel of roughly 83,000, 20% have a hit. The source made the active and inactive calls. Rule for the calls: active = growth percent below 10; inactive = the rest.
Possible outcomes: active, inactive

molecule="C=C1CCC2C3(C)COC(c4c(F)cccc4F)OC3CCC2(C)C1C/C=C1/C(=O)OCC1O (centres undefined)" category=active
molecule=O=S(=O)(Nc1ncccn1)c1ccc(-n2c(-c3ccccc3)nc(-c3ccccc3)c2-c2ccccc2)cc1 category=inactive
molecule="COc1ccccc1[C@H]1C(C(=O)c2ccc(Cl)cc2)C2(N[C@@H]1c1ccccc1)C(=O)Nc1ccc(Cl)cc12 (some centres undefined)" category=active
molecule=CC(=O)c1ccc(Nc2nc(SCCC(C)C)nc(-c3ccc(F)cc3)c2C#N)cc1 category=inactive

###

System: SF-295 CNS
measurement-description: NCI-60 one-dose screen, 48 h (100 = growth as untreated, 0 = no growth, -100 = all killed)
condition-description: 10 µM
About 83,000 compounds went through this panel and 20% of them were active in at least one assay; those are over-represented in the sample as a whole.
Record True whenever growth is at 20% or higher; record False when lower.

compound="CN1C(=O)N(C)C2SC(N/N=C/c3cccs3)=NC21 (centres undefined)" category=False
compound=CS(=O)(=O)Nc1ccc(-c2ccc3c(c2)ncn3-c2ccc(NC(=O)Nc3ccc(Br)cc3)cc2)cc1 category=False
compound=CCN1CCN(Cc2ccc(NC(=O)c3cccc(-n4cc(-c5ccc(NC(C)=O)nc5)nn4)c3)cc2C(F)(F)F)CC1 category=True
compound=COc1cccc(-c2ccnc(/N=C(\N)Nc3ccc(S(=O)(=O)Nc4nc(C)cc(C)n4)cc3)n2)c1 category=True
compound="CCC(C)S(=O)(=O)c1oc(-c2ccc(C)cc2)nc1S(=O)(=O)c1ccccc1 (centres undefined)" category=True
compound=O=C(Nc1ccc(Cl)c([N+](=O)[O-])c1)Nc1ccc(Cl)c([N+](=O)[O-])c1 category=False
compound=C/C(=N\N=C\c1ccc(N(C)C)cc1)c1ccc2c(c1)Nc1ccccc1S2 category=True
compound=Cc1ccc(C(C)C)cc1NC(=O)c1ccccc1N(C)C category=True
compound=COc1nccnc1NS(=O)(=O)c1ccc(NC2=C(Cl)C(=O)c3nc(C)ccc3C2=O)cc1 category=True
compound=O=C(CNc1nc(-c2ccccc2)cs1)Nc1ccc(Cl)cc1 category=False
compound=C=C[C@@]12CN3CC[C@]1(O)[C@@](C(=O)OC)(CO2)c1[nH]c2ccccc2c1C3 category=True
compound=Cc1ccc(C(=O)NCCCNc2nc(Nc3ccc(N4CCN(C)CC4)cc3)nc3ccsc23)cc1 category=True
compound=CCCn1c(=O)c2[nH]c(-c3ccc(OCc4nc5ccc(F)cc5[nH]4)cc3)nc2n(CCC)c1=O category=False
compound=Cc1ccc(C(=O)N/C(=C2/OCCN2C)[P+](c2ccccc2)(c2ccccc2)c2ccccc2)cc1 category=True
compound=COc1cc2c(cc1OC)/C(=C\c1sc(Nc3ccc(O)cc3)nc1O)C(C(=O)O)=N2 category=False
compound=O=C(NO)c1ccc(-c2nc3ccc4[nH]ncc4c3c3c2CCCC3)cc1 category=False
compound=CCN(CC)CCOc1ccc(C(=C(C)c2ccccc2)c2ccc(OCCN(CC)CC)cc2)cc1 category=False
compound=COc1ccc(/C(CSc2nnc(-c3c[nH]c4ccccc34)n2-c2ccccc2)=N/O)cc1 category=True
compound=O=C1Nc2ccc(Cl)cc2/C1=C/c1cccc(OCc2ccccc2)c1 category=True
compound=Cc1ccc2nc(-c3ccc(-c4nnc(SCC(=O)Nc5ccc(Br)cc5)o4)cc3)[nH]c2c1 category=True
compound=COc1ccc(CN2[C@H](C(=O)NCCCCCCC(=O)NO)Cc3c([nH]c4ccccc34)[C@H]2C2CC2)cc1 category=False
compound=CN(C)c1ccc(/C=C/c2nc3ccccc3c(=O)n2CC(=O)Nc2ccccc2)cc1 category=True
compound=O=C(CNc1nc(-c2ccccc2)cs1)Nc1ccc(Cl)cc1[N+](=O)[O-] category=False

###

System: HOP-62 NSCLC
measurement-description: NCI-60 one-dose screen, 48 h (100 = growth as untreated, 0 = no growth, -100 = all killed)
condition-description: 10 µM
About 83,000 compounds went through this panel and 20% of them were active in at least one assay; those are over-represented in the sample as a whole.
Quick list: growth per entry.
property-name: growth (%)

compound=Cc1ccc(C(=O)CSc2nnc(-c3c[nH]c4ccccc34)n2-c2ccccc2)cc1 assayed_system="HOP-62 NSCLC" property_name=growth endpoint_value=7.8
compound="O=C(Cc1ccc2c(c1)CN(C1CCC(=O)NC1=O)C2=O)NCCc1ccccc1 (centres undefined)" assayed_system="HOP-62 NSCLC" property_name=growth endpoint_value=0.419
compound=CO[C@@H]1CSS[C@H]1Cn1nc(-c2ccc(Oc3ccccc3)cc2)c2c(N)ncnc21 assayed_system="HOP-62 NSCLC" property_name=growth endpoint_value=111
compound=C=C(C)[C@@H]1CC[C@]2(COP(=O)(OCC)OCC)CC[C@]3(C)[C@H](CC[C@@H]4[C@@](C)(CCCN)[C@H](C(=C)C)CC[C@]43C)[C@@H]12 assayed_system="HOP-62 NSCLC" property_name=growth endpoint_value=53.5
